Tested On: Nuclear receptor subfamily 5 group A member 2 (Homo sapiens) (UniProt O00482)
Sequence (O00482 whole entry, looked up): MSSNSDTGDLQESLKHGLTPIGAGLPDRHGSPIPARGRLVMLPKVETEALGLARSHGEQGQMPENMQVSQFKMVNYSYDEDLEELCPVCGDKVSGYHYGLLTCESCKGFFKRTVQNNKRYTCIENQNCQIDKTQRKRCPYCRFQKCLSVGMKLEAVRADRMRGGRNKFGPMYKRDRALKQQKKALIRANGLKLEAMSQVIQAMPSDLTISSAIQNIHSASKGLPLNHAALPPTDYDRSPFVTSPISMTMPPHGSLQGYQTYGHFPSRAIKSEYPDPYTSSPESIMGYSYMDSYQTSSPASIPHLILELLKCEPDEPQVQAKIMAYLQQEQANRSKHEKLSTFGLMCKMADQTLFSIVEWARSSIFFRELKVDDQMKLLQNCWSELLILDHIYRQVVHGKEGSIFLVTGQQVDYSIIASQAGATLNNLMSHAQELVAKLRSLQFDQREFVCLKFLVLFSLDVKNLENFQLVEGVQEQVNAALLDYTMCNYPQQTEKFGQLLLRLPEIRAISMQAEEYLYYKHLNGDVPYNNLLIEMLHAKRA
Test: LRH-1 (NR5A2) inverse agonists, retest, confirmation, cell-based, luminescence (AID 651613);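 note: HEK293T cells co-transfected with LRH-1 and StAR promoter luciferase reporter; 0% = vehicle wells and 100% = parental cells lacking receptor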
Condition Description: cell-based LRH-1 luciferase reporter, inverse agonism; at 3.6 µM; active compounds read high
Measured Endpoint: inhibition (%)
Express the result in % but write the number alone.

Query :: Any idea what its inhibition is? The compound is CC(=O)O[C@H]1C(=O)[C@@]2(C)C([C@H](OC(=O)c3ccccc3)[C@]3(O)C[C@H](OC(=O)[C@H](O)[C@@H](NC(=O)Cc4ccccc4)c4ccccc4)C(C)=C1C3(C)C)[C@]1(OC(C)=O)CO[C@@H]1C[C@@H]2O (stereo partly specified)
Result :: 45.2

Query :: Any idea what its inhibition is? The compound is N#Cc1ccc(NC(=S)N2Cc3ccccc3-n3nncc3C2)cc1
Result :: 56.4

Query :: Any idea what its inhibition is? The compound is COC1C(O)C(C)OC(OC2CCC3(C)C(CCC4C3C(O)CC3(C)C(C5=CC(=O)OC5)CCC43O)C2)C1O (stereo unspecified)
Result :: 110

Query :: Any idea what its inhibition is? The compound is COC(=O)C(C)Oc1cc(C)cc2oc(=O)c3c(c12)CCC3 (stereo unspecified)
Result :: 76.3

Query :: Any idea what its inhibition is? The compound is COC1C(O)C(C)OC(OC2CCC3(C=O)C(CCC4C3CCC3(C)C(C5=CC(=O)OC5)CCC43O)C2)C1O (stereo unspecified)
Result :: 110

Query :: Any idea what its inhibition is? The compound is C1=NCCc2c1[nH]c1ccccc21
Result :: 50.2

Query :: Any idea what its inhibition is? The compound is C[C@@H]1O[C@@H](O[C@H]2C[C@@H](O)[C@]3(CO)[C@@H]4C(CC[C@]3(O)C2)[C@@]2(O)CC[C@H](C3COC(=O)C3)[C@@]2(C)C[C@H]4O)[C@H](O)[C@H](O)[C@H]1O (stereo partly specified)
Result :: 100

Query :: Any idea what its inhibition is? The compound is O=c1[nH]c2ccccc2n1C1CCN(C(c2ccccc2OC(F)(F)F)c2nnnn2-c2ccc3c(c2)OCCO3)CC1 (stereo unspecified)
Result :: 37.3

Query :: Any idea what its inhibition is? The compound is CC1=CC(=Cc2sc3ccccc3[n+]2C)C=C(C)O1
Result :: 105

Query :: Any idea what its inhibition is? The compound is CC1=CC2OC3CC4OC(=O)C=CC=CC(C(C)O)OCC(O)C5(C)OC5C(=O)OCC2(CC1O)C4(C)C31CO1 (stereo unspecified)
Result :: 108

Query :: Any idea what its inhibition is? The compound is COc1ccc(-n2nnnc2C(c2cc3ccccc3o2)N2CCC(n3c(=O)[nH]c4ccccc43)CC2)cc1 (stereo unspecified)
Result :: 36.4

Query :: Any idea what its inhibition is? The compound is CC12CCC(O)CC1CCC1C2CCC2(C)C(C3=CC(=O)OC3)CCC12O (stereo unspecified)
Result :: 110

Query :: Any idea what its inhibition is? The compound is COc1ccc(-n2nnnc2C(CCc2ccccc2)N2CCC(n3c(=O)[nH]c4ccccc43)CC2)cc1 (stereo unspecified)
Result :: 28.1

Query :: Any idea what its inhibition is? The compound is Cc1cc(-c2ccccc2)cc(-c2ccccc2)[n+]1CCc1ccccc1
Result :: 91.6

Query :: Any idea what its inhibition is? The compound is CC1=C(O)C(=O)C=C2C1=CC=C1C2(C)CCC2(C)C3CC(C)(C(=O)O)CCC3(C)CCC12C (stereo unspecified)
Result :: 106

Query :: Any idea what its inhibition is? The compound is CC(=O)OC1CC(OC2C(O)CC(OC3C(O)CC(OC4CCC5(C)C(CCC6C5CCC5(C)C(C7=CC(=O)OC7)C(O)CC65O)C4)OC3C)OC2C)OC(C)C1OC1OC(CO)C(O)C(O)C1O (stereo unspecified)
Result :: 111

Query :: Any idea what its inhibition is? The compound is CC(C)(O)/C=C/C(=O)C(C)(O)C1C(O)CC2(C)C3CC=C4C(C=C(O)C(=O)C4(C)C)C3(C)C(=O)CC12C (stereo unspecified)
Result :: 79.3

Query :: Any idea what its inhibition is? The compound is CCC(C)(O)C(=O)OC1C(=O)OC2CC3C(C)=CC(=O)C(O)C3(C)C3C4(O)OCC23C1C(C)C4O (stereo unspecified)
Result :: 109

Query :: Any idea what its inhibition is? The compound is CCOC(=O)[C@]12Cc3cc(Cl)ccc3[C@H]1N(C1CCCCC1)C(=O)c1cc(OC)ccc12
Result :: 105

Query :: Any idea what its inhibition is? The compound is CCN(CC)C1=NC(=[N+](CC)CC)c2ccccc21
Result :: 107

Query :: Any idea what its inhibition is? The compound is CC[C@@H](O)C[C@H]1CCC[C@@]2(C[C@@H]3OC(=O)/C=C/[C@@](C)(O)[C@@H](O)[C@H](C)[C@@H](O)[C@H](OC4CCC(N(C)C)C(C)O4)[C@@H](O)[C@](C)(O)CCCCC/C=C/[C@@H]4CC(C)(C)O[C@@]4(O)C[C@H](O2)[C@H]3C)O1 (stereo partly specified)
Result :: 105

Query :: Any idea what its inhibition is? The compound is CC(=O)OC1C(=O)OCC23CCC4(C)OC4C2OC2CC(OC(=O)C=CC=CC(=O)OCCC1C)C3(C)C21CO1 (stereo unspecified)
Result :: 110

Query :: Any idea what its inhibition is? The compound is C[C@H]1O[C@@H](OC2CC[C@]3(C=O)[C@H]4CC[C@]5(C)[C@@H](C6=CC(=O)OC6)CC[C@]5(O)[C@@H]4CC[C@]3(O)C2)CC2OC(C)(C)OC21 (stereo partly specified)
Result :: 111

Query :: Any idea what its inhibition is? The compound is CN1C(=O)C(=Cc2ccc(N3CCCCCC3)cc2)C(=O)N(C)C1=O
Result :: 57

Query :: Any idea what its inhibition is? The compound is CC1=CC(O)C(O)C2(C)C1CC1OC(=O)CC3C(C)C(O)C(=O)C2C13CO (stereo unspecified)
Result :: 43

Query :: Any idea what its inhibition is? The compound is O=C1NC2C(=CC(O)C(O)C2O)c2cc3c(c(O)c21)OCO3 (stereo unspecified)
Result :: 109

Query :: Any idea what its inhibition is? The compound is CC1OC(OC2CC(O)C3(CO)C4C(O)CC5(C)C(C6=CC(=O)OC6)CCC5(O)C4CCC3(O)C2)C(O)C(O)C1O (stereo unspecified)
Result :: 109

Query :: Any idea what its inhibition is? The compound is CCC(C)(O)C(=O)OC1C(=O)OC2CC3C(C)=CC(O)C(O)C3(C)C3C4(O)OCC23C1C(C)C4O (stereo unspecified)
Result :: 103

Query :: Any idea what its inhibition is? The compound is CC(=O)OC1C(O)C(C)OC(OC2C(OC(=O)C3CCC4C(C3)OC3(CC(OC(=O)/C=C/c5ccccc5)C(C)CO3)C43CO3)OC(C)C(O)C2OC(C)=O)C1O (stereo unspecified)
Result :: 109

Query :: Any idea what its inhibition is? The compound is CC(C)c1oc(=O)cc2c1[C@@H](O)[C@H]1OC(=O)[C@@]3(C)CC[C@@H](O)[C@@]2(C)C13 (stereo partly specified)
Result :: 86.2

Query :: Any idea what its inhibition is? The compound is CC(=O)OC[C@]12CCC(C)=C[C@H]1O[C@@H]1[C@H](O)[C@@H](OC(C)=O)[C@@]2(C)[C@]12CO2
Result :: 109
